# assay-protocol: Probe fluorescence ratio response to arachidonic acid relative to ADIFAB2
# Format: binding
# measurement-context: Table 5; Arachidonic acid
readout-kind: ΔR/DRAΔ2 AA

{"molecule": "L2P8A5: FABP probe, substitutions M18V G31A F55W A73W vs SEQ ID NO: 2 (protein, listed as Rattus norvegicus, PEPTIDE (1)...(131) wild-type rat intestinal fatty acid binding protein) AFDGTWKVDRNENYEKFVEKMGINVVKRKLAAHDNLKLTITQEGNKFTVKESSNWRNIDVVFELGVDFAYSLWDGTELTGTWTMEGNKLVGKFKRVDNGKELIAVREISGNELIQTYTYEGVEAKRIFKKE", "reported-value": 1.1}
{"molecule": "L2P23A4: FABP probe, substitutions M18V G31I F55L A73V vs SEQ ID NO: 2 (protein, listed as Rattus norvegicus, PEPTIDE (1)...(131) wild-type rat intestinal fatty acid binding protein) AFDGTWKVDRNENYEKFVEKMGINVVKRKLIAHDNLKLTITQEGNKFTVKESSNLRNIDVVFELGVDFAYSLVDGTELTGTWTMEGNKLVGKFKRVDNGKELIAVREISGNELIQTYTYEGVEAKRIFKKE", "reported-value": 2.8}

Provenance of the data: patent US20060257938A1
